- Measured target: CD47 on the red cell surface (Homo sapiens (Human), UniProt Q08722 19-323)
- Test details: flow cytometry on fixed red cells, antibody 1 µg/mL
Recorded MFI values for a group of binders are listed next.
# value in MFI; strip the unit string

Binder	MFI [MFI]
hz14A9-2.3 (antibody, human IgG4 S228P, kappa, V domains shown, humanized 14A9, full-length heavy and light chains) VH: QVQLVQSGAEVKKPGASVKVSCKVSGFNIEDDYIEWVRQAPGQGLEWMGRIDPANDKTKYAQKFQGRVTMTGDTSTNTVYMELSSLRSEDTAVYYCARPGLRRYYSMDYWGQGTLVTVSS VL: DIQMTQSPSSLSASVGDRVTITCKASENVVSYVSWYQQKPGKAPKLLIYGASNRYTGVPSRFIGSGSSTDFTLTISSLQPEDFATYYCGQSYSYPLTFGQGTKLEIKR	2510
hz3F10-3.2 (antibody, human IgG4 S228P, kappa, V domains shown, humanized 3F10, full-length heavy and light chains) VH: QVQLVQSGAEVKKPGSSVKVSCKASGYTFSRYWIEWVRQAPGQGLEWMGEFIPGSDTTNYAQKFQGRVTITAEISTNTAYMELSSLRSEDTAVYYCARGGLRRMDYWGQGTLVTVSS VL: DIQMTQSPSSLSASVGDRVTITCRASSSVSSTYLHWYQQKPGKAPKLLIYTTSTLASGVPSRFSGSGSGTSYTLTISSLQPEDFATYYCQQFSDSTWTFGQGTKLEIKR	5100

Now turn to the next binder.
Using the record for hz3F10-5.2 (antibody, human IgG4 S228P, kappa, V domains shown, humanized 3F10, full-length heavy and light chains) VH: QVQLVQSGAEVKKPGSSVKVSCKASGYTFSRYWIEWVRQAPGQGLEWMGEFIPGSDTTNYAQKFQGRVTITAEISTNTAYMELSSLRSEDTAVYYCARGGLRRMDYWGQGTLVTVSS VL: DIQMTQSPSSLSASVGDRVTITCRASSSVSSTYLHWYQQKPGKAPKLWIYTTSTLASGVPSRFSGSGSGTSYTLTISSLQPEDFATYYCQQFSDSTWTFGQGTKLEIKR , report its MFI.
5130
